Below, each entry is listed with its recorded IC50.
Target protein (sequence): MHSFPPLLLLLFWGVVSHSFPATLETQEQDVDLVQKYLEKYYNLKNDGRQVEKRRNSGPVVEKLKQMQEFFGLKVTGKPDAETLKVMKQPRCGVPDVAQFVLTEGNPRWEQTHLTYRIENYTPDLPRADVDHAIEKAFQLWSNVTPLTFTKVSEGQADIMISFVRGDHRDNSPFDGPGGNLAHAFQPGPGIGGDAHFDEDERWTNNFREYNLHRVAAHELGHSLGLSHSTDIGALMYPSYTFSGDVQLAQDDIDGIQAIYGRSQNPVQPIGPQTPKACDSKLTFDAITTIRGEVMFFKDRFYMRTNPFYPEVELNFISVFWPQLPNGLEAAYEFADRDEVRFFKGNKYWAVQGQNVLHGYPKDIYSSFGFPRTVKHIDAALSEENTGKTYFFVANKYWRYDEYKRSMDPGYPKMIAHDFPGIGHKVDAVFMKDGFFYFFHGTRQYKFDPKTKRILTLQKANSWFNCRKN

- compound: "CCCOc1ccc(-c2ccc(OCC(CN3C(=O)NC(C)(C)C3=O)N(O)C=O)cc2)cc1 (stereo not given)"
  recordedValue: "> 10 µM"
- compound: "CC1(C)NC(=O)N(C[C@H](COc2ccc(-c3ccc(OC(F)(F)F)cc3)cc2)N(O)C=O)C1=O"
  recordedValue: "> 10 µM"
- compound: "C=Cc1ccc(-c2ccc(OCC(CN3C(=O)N(C)C(C)(C)C3=O)N(O)C=O)cc2)cc1 (stereo not given)"
  recordedValue: "> 10 µM"
- compound: "CN1C(=O)N(CC(COc2ccc(-c3cccc(C#N)c3)cc2)N(O)C=O)C(=O)C1(C)C (stereo not given)"
  recordedValue: "> 10 µM"

What the record says about COCCOc1ccc(-c2ccc(OCC(CN3C(=O)NC(C)(C)C3=O)N(O)C=O)cc2)cc1 (stereo not given) : IC50 is > 10 µM
